Source: the supplement of paper PMC12764529

experiment: folding stability dG unfold (combined trypsin and chymotrypsin); higher = more stable
Property: folding stability dG unfold (kcal/mol)
Numbers only; they are read as kcal/mol.

Some solved cases for reference:
{"Residue string": "SAGGSAGGSARITVTPEGGYWRVTIKGPGKTRTFQFPMPANEAEEIVEELQNPPIDIDVEPVSAGGSAGGSA [r18_103_TrROS]", "folding stability dG unfold [kcal/mol]": -0.115}
{"Residue string": "SAGGSAGGSAGGGSMESVVLNVPIYEKTPDGSWRLVKELPILVPVDASPEVVEKKRKELSAGGSAGGSAGGS [r10_470_JUSTAS]", "folding stability dG unfold [kcal/mol]": -0.481}

Now for a further sequence.
q: Answer with reported folding stability dG unfold of SAGPVVVDPNGKLLPLKVKAVFVIDPELLEEKAKESDNSLEKAIRDLVKELEAELKAKGYDVEVEGIGSAGG [r19_305_TrMRF]
a: 1.68
